Recorded values, source patent US20130102009A1.

Below: a set of entries, each annotated with reported Kd.
- target-or-system: TAMRA-peptide
- assay-method-text: ITC binding of STACs to TAMRA-peptide
- measurement-conditions: 26° C., pH 7.3, read-out: Kd for the binding of activator to TAMRA-peptide
- Method: ITC experiments were performed using either a VP-ITC system or iTC200 system (MicroCal) at 26° C. in a buffer composed of 137 mM NaCl, 2.7 mM KCl, 1 mM MgCl2, 2 mM TCEP, 5% (v/v) glycerol and 50 mM HEPES-NaOH, pH 7.3. SIRT1(183-664) was purified and dialyzed against the buffer, centrifuged, and degassed before the experiment. The peptide and compounds were dissolved in the final dialysis buffer and their pH values were adjusted to match that of the protein solution. […]
The reply should be a number in µM, with the unit left off.

**Query** What Kd value was documented for this compound, CCCCc1nc(NC2CCNCC2)cc(C(=O)Nc2ccccc2-c2nc3cc(COC4CCNCC4)cnc3s2)n1 ?
**Result** 2.5

**Query** What Kd value was documented for this compound, COc1cc(C(=O)Nc2ccccc2-c2cn3c(CN4CCNCC4)csc3n2)cc(OC)c1OC ?
**Result** 140

Further cases:
**Query** What Kd value was documented for this compound, O=C(Nc1ccccc1-c1nc2cc(CCC3CCNCC3)cnc2s1)c1cccc(C2CCNC2)c1 (stereo not shown) ?
**Result** 36

###

- target-or-system: SIRT1 (Homo sapiens, UniProt Q96EB6)
- Sequence (Q96EB6 1-747): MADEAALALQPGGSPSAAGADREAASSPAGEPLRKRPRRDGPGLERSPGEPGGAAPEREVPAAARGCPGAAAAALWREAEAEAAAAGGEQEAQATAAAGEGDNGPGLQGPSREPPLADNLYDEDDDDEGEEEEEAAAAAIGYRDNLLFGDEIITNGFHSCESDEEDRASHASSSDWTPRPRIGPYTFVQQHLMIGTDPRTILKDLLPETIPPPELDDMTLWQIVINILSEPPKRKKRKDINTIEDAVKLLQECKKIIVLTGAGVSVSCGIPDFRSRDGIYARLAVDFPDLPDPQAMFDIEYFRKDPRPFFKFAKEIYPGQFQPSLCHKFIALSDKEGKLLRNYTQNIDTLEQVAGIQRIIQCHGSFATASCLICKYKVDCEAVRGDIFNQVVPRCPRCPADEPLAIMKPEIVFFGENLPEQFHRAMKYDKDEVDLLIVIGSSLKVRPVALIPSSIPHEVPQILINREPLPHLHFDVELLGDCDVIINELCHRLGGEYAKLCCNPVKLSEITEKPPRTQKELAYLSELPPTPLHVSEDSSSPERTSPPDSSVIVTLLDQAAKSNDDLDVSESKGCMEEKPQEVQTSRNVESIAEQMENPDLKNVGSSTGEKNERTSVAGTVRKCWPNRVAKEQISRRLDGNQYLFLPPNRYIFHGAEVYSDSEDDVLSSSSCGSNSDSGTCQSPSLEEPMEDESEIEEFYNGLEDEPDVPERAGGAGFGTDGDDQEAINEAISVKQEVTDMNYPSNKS
- assay-method-text: Continuous PNC1-GDH-coupled assay of SIRT1-catalyzed deacetylation of Ac-Arg-His-Lys-Lys^Ac-X with STACs
- Type: biochemical
- measurement-conditions: full titration, 3-5 independent experiments; read-out: EC50 for activation of deacetylation of Ac-Arg-His-Lys-Lys^Ac-X, X=TrpNH2
- Experimental: Bovine glutamate dehydrogenase (GDH), α-ketoglutarate, NADH and NAD^+ were from Sigma Chemical Company. […] The nicotinamidase PNC1 was prepared as described by Denu and colleagues (Smith et al. (2009) Anal Biochem 394, 101-109). To determine the interaction of STACs with SIRT1 two kinetic methods were employed. […] (2007) Nature 450, 712-716). […] This reaction occurs with oxidation of NADH to NAD^+ which is accompanied by a change in absorbance at 340 nm (Δε340=-6,200 M^-1 cm^-1). […]
measured-attribute: EC50 (µM)
The reply should be a number in µM, with the unit left off.

**Query** What EC50 value was documented for this molecule, COc1cc(C(=O)Nc2ccccc2-c2cn3c(CN4CCNCC4)csc3n2)cc(OC)c1OC ?
**Result** 27
